So I've got a bunch of molecules here, and I need their melting point values.
Numbers only, in °C.

Examples with answers:
[[record]]
molecule = "Cc1cc(-c2sc(N3CCOC(C)(C)C3)nc2CNC(=O)c2ccc(F)cc2C)cc(C)n1 [Compound 157]"
endpoint_result = 197

[[record]]
molecule = "CCC(=O)NCc1nc(N2C[C@@H](C)O[C@@H](C)C2)sc1-c1cc(C)nc(C)c1 [Compound 39]"
endpoint_result = 176

[[record]]
molecule = "Cc1cc(-c2sc(N3CC(C)OC(C)C3)nc2CNC(=O)c2cc(C)on2)cc(C)n1 (racemic) [Compound 59]"
endpoint_result = 166


List the reported melting point of each molecule below.
1. Cc1cc(-c2sc(N3C[C@@H](C)O[C@@H](C)C3)nc2CNC(=O)CC2CC2)ccn1 [Compound 88]
2. Cc1cc(-c2sc(N3CCOC(C(F)(F)F)C3)nc2CNC(=O)CC2CC2)cc(C)n1 (stereo not drawn) [Compound 190]

Output line:
1. 177
2. 168

List the reported melting point of each molecule below.
1. Cc1cc(C(=O)NCc2nc(N3CCOCC3)sc2-c2ccncc2)no1 [Compound 111]
2. COc1cc(-c2sc(N3C[C@@H](C)O[C@@H](C)C3)nc2CNC(=O)C2CCC2)cc(C)n1 [Compound 84]
3. Cc1cc(-c2sc(N3C[C@@H](C)O[C@@H](C)C3)nc2CNC(=O)c2cc(C)oc2C)cc(C)n1 [Compound 146]

Output line:
[191, 171, 131]

List the reported melting point of each molecule below.
1. Cc1cc(-c2sc(N3C[C@@H](C)O[C@@H](C)C3)nc2CNC(=O)c2nocc2C)cc(C)n1 [Compound 174]
2. Cc1cc(F)ccc1C(=O)NCc1nc(N2C[C@@H](C)O[C@@H](C)C2)sc1-c1ccncc1 [Compound 102]
3. Cc1cc(-c2sc(N3CCOC[C@@H]3C)nc2CNC(=O)c2ccc(F)cc2C)cc(C)n1 [Compound 184]
4. Cc1cc(-c2sc(N3C[C@@H](C)O[C@@H](C)C3)nc2CNC(=O)c2cccc3c2OC(F)(F)O3)cc(C)n1 [Compound 46]

Output line:
145
161
156
185

List the reported melting point of each molecule below.
1. Cc1cc(-c2sc(N3C[C@@H](C)O[C@@H](C)C3)nc2CNC(=O)c2ccno2)cc(C)n1 [Compound 149]
2. Cc1ccc(-c2sc(N3C[C@@H](C)O[C@@H](C)C3)nc2CNC(=O)c2ccccc2Cl)cn1 [Compound 121]
3. Cc1cc(-c2sc(N3C[C@@H](C)O[C@@H](C)C3)nc2CNC(=O)c2cc(C)on2)ccn1 [Compound 87]
4. Cc1cc(C(=O)NCc2nc(N3C[C@@H](C)O[C@@H](C)C3)sc2-c2cc(C)nc(C)c2)on1 [Compound 4]

Output line:
1: 164; 2: 152; 3: 177; 4: 184

---

# target desc: human alpha 7-wt nAChR (Homo sapiens)
# Construct: expressed in transfected cells
# assay name: Ca2+ flux imaging (FDSS) (Protocol B)
# Type: cell-based
# condition description: potentiation of 100 μM choline; compounds 0.01 μM to 30 μM; read-out: a7-PAM-G_[33]_pEC50 pEC50 (converted)
So I've got a bunch of compounds here, and I need their EC50 values.
Numbers only, in µM.

Examples with answers:
[[record]]
compound = "Cc1cc(-c2sc(N3C[C@@H](C)O[C@@H](C)C3)nc2CNC(=O)c2cc(C(C)(C)C)nn2C)cc(C)n1"
endpoint_result = 0.646

[[record]]
compound = "CC(C)C(=O)NCc1nc(N2CCOCC2)sc1-c1ccncc1"
endpoint_result = 9.33


List the reported EC50 of each compound below.
1. Cc1cc(-c2sc(N3C[C@@H](C)O[C@@H](C)C3)nc2CNC(=O)c2ccc(F)cc2)cc(C)n1
2. Cc1cc(-c2sc(N3CCOC[C@@H]3C)nc2CNC(=O)C(C)C)cc(C)n1
3. Cc1cc(-c2sc(N3C[C@@H](C)O[C@@H](C)C3)nc2CNC(=O)[C@@H]2CCCN2C)cc(C)n1
4. Cc1cc(-c2sc(N3C[C@@H](C)O[C@@H](C)C3)nc2CNC(=O)c2ccc(C(F)(F)F)cc2)cc(C)n1
5. Cc1cc(-c2sc(N3C[C@@H](C)O[C@@H](C)C3)nc2CNC(=O)c2ccc(F)cc2C)cc(C2CC2)n1
6. Cc1ccc(-c2sc(N3C[C@@H](C)O[C@@H](C)C3)nc2CNC(=O)c2cccc(Cl)c2)cn1
7. COc1cc(-c2sc(N3C[C@@H](C)O[C@@H](C)C3)nc2CNC(=O)c2conc2C)cc(C)n1

Output line:
1: 0.457; 2: 5.01; 3: 6.17; 4: 0.229; 5: 0.0269; 6: 1; 7: 0.295

---

# target desc: human alpha 7-wt nAChR (Homo sapiens, UniProt P36544)
# Construct: expressed in transfected cells
# Sequence (P36544 23-502): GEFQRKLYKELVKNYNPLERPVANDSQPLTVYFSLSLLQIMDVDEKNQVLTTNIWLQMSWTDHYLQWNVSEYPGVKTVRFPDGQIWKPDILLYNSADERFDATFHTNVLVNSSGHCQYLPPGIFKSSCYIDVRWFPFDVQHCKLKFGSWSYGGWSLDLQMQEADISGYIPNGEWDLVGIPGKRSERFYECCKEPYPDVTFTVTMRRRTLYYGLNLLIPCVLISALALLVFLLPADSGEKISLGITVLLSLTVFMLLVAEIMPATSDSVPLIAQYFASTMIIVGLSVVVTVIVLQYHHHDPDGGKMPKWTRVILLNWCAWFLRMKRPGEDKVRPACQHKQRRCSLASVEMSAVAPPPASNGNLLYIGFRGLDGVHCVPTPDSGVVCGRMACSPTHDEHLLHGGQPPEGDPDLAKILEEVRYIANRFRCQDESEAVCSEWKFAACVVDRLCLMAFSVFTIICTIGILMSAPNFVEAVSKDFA
# assay name: Ca2+ flux imaging (FDSS) (Protocol B)
# Assay type: cell-based
# condition description: efficacy of 100 μM choline defined as 100% in the absence of a PAM; read-out: a7-PAM-G_[33]_Eff_Curve_FI % Efficacy
Emax strictly less than 500% = 1. Otherwise 0.

[[record]]
compound = "Cc1cc(-c2sc(N3CCOC[C@@H]3C)nc2CNC(=O)c2cc(C)on2)cc(C)n1"
category_label = 0

[[record]]
compound = "COc1cc(-c2sc(N3C[C@@H](C)O[C@@H](C)C3)nc2CNC(=O)c2cccc(F)c2)cc(C)n1"
category_label = 1

[[record]]
compound = "Cc1cc(-c2sc(N3C[C@@H](C)O[C@@H](C)C3)nc2CNC(=O)CCC(C)C)cc(C)n1"
category_label = 0

[[record]]
compound = "COc1cc(-c2sc(N3C[C@@H](C)O[C@@H](C)C3)nc2CNC(=O)c2conc2C)cc(C)n1"
category_label = 1

[[record]]
compound = "Cc1ccc(-c2sc(N3C[C@@H](C)O[C@@H](C)C3)nc2CNC(=O)C2CCC2)cn1"
category_label = 0

[[record]]
compound = "COc1cc(-c2sc(N3C[C@@H](C)O[C@@H](C)C3)nc2CNC(=O)c2cc(C)on2)cc(C)n1"
category_label = 1

[[record]]
compound = "Cc1cc(-c2sc(N3CC4CCC(C3)O4)nc2CNC(=O)c2cc(C)on2)cc(C)n1"
category_label = 0

[[record]]
compound = "Cc1cc(-c2sc(N3C[C@@H](C)O[C@@H](C)C3)nc2CNC(=O)c2nc(C)oc2C(F)(F)F)cc(C)n1"
category_label = 1

[[record]]
compound = "Cc1cc(-c2sc(N3C[C@@H](C)O[C@@H](C)C3)nc2CNC(=O)C2CC(=O)OC2(C)C)cc(C)n1 (stereo partly drawn)"
category_label = 0

[[record]]
compound = "Cc1cc(-c2sc(N3C[C@@H](C)O[C@@H](C)C3)nc2CNC(=O)C2CCCC2)cc(C)n1"
category_label = 0


Input line: I wonder whether Cc1cc(-c2sc(N3C[C@@H](C)O[C@@H](C)C3)nc2CNC(=O)C2CCCC2)c(C)cn1 has Emax below 500%. Can you tell?
Output line: 1

Input line: Now the compound Cc1cc(-c2sc(N3C[C@@H](C)O[C@@H](C)C3)nc2CNC(=O)CCC2CC2)cc(C)n1
Output line: 0

---

# target desc: human alpha 7-wt nAChR (Homo sapiens, UniProt P36544)
# Construct: expressed in transfected cells
# assay name: Ca2+ flux imaging (FDSS) (Protocol B)
# Assay type: cell-based
# condition description: potentiation of 100 μM choline; compounds 0.01 μM to 30 μM; read-out: a7-PAM-G_[33]_pEC50 pEC50 (converted)
So I've got a bunch of compounds here, and I need their EC50 values.
One number for each entry, in µM.

Examples with answers:
[[record]]
compound = "Cc1cc(-c2sc(N3CC(C)OC(C)C3)nc2CNC(=O)c2ccc(F)cc2C)cc(C)n1 (racemic)"
assay_metric = "EC50"
endpoint_result = 0.234

[[record]]
compound = "Cc1cc(F)ccc1C(=O)NCc1nc(N2C[C@@H](C)O[C@@H](C)C2)sc1-c1ccncc1"
assay_metric = "EC50"
endpoint_result = 0.347

[[record]]
compound = "Cc1cc(-c2sc(N3C[C@@H](C)O[C@@H](C)C3)nc2CNC(=O)c2cc(F)cc(F)c2)cc(C)n1"
assay_metric = "EC50"
endpoint_result = 0.17

[[record]]
compound = "Cc1cc(-c2sc(N3CCOCC3)nc2CNC(=O)c2ccc(F)cc2C)cc(C)n1"
assay_metric = "EC50"
endpoint_result = 0.661

[[record]]
compound = "Cc1cc(-c2sc(N3C[C@@H](C)O[C@@H](C)C3)nc2CNC(=O)c2c(C)noc2C)cc(C)n1"
assay_metric = "EC50"
endpoint_result = 0.813


List the reported EC50 of each compound below.
1. Cc1cc(-c2sc(N3C[C@@H](C)O[C@@H](C)C3)nc2CNC(=O)c2ccc(Cl)cc2C)cc(C)n1
2. Cc1cc(-c2sc(N3C[C@@H](C)O[C@@H](C)C3)nc2CNC(=O)c2cccc(C(F)(F)F)c2)cc(C)n1
3. Cc1cc(-c2sc(N3CCOCC3)nc2CNC(=O)c2conc2C)cc(C)n1
4. Cc1cc(-c2sc(N3C[C@@H](C)O[C@@H](C)C3)nc2CNC(=O)c2ccc(F)c(F)c2)cc(C)n1

Output line:
1. 0.02
2. 0.282
3. 4.27
4. 0.0741

List the reported EC50 of each compound below.
1. Cc1cc(-c2sc(N3C[C@@H](C)O[C@@H](C)C3)nc2CNC(=O)CC#N)cc(C)n1
2. Cc1ccc(-c2sc(N3C[C@@H](C)O[C@@H](C)C3)nc2CNC(=O)c2ccc(Cl)cc2)cn1
3. Cc1cc(-c2sc(N3C[C@@H](C)O[C@@H](C)C3)nc2CNC(=O)c2cnn(C)c2C)cc(C)n1

Output line:
[3.09, 0.389, 8.13]

List the reported EC50 of each compound below.
1. Cc1cc(-c2sc(N3CC4CCC(C3)O4)nc2CNC(=O)C(C)C)cc(C)n1
2. Cc1cc(-c2sc(N3C[C@@H](C)O[C@@H](C)C3)nc2CNC(=O)c2scnc2C)cc(C)n1
3. Cc1cc(C(=O)NCc2nc(N3C[C@@H](C)O[C@@H](C)C3)sc2-c2ccncc2)no1

Output line:
1: 3.31; 2: 2.75; 3: 1.82
